I'd appreciate it if you could supply viability at 6.25 µg/mL values for the items below.
Test system: MCF7
EXPERIMENTAL DETAILS: Cytotoxicity against Homo sapiens (human) MCF7 cells assessed as cell viability at 6.25 ug/ml after 48 hr by MTT assay relative to control
Type: functional
CONDITION NOTES: MCF7, 48 h, read-out: Activity
Reply with just the number (in %).

[in] I am curious: what viability at 6.25 µg/mL value has been reported for N#CC1=C(N)Oc2c(ccc3cccnc23)C1c1ccc(Cl)cc1 (centres undefined) ?
[out] 82.5

[in] Now the same for CC[C@]1(O)C[C@@H]2CN(CCc3c([nH]c4ccccc34)[C@@](C(=O)OC)(c3cc4c(cc3OC)N(C)[C@H]3[C@@](O)(C(=O)OC)[C@H](OC(C)=O)[C@]5(CC)C=CCN6CC[C@]43[C@@H]65)C2)C1
[out] 48.8

[in] Same thing, different compound: CN(C)/C=N/C1=C(C#N)C(c2ccc(Cl)cc2)c2ccc3cccnc3c2O1 (centres undefined)
[out] 83.5

[in] Now try CCO/C=N/C1=C(C#N)C(c2ccc(Cl)cc2)c2ccc3cccnc3c2O1 (centres undefined) .
[out] 81.4

----------
Tested on: MCF7
EXPERIMENTAL DETAILS: Cytotoxicity against Homo sapiens (human) MCF7 cells assessed as cell viability at 6.25 ug/ml after 48 hr by MTT assay relative to control
Assay type: functional
CONDITION NOTES: MCF7, 48 h, read-out: Activity
Label Fulfilled when viability at 6.25 µg/mL is strictly below 70%; otherwise label Not fulfilled.

[in] Please let me know if N#CC1=C(/N=C/N)Oc2c(ccc3cccnc23)C1c1ccc(Cl)cc1 (stereo unspecified) shows viability at 6.25 µg/mL below 70%.
[out] Fulfilled

[in] Now consider N#CC1=C(N)Oc2c(ccc3cccnc23)C1c1ccc(Br)cc1 (stereo unspecified) .
[out] Not fulfilled

[in] And what about the compound N#CC1=C(/N=C/NN)Oc2c(ccc3cccnc23)C1c1ccc(Cl)cc1 (stereo unspecified) ?
[out] Fulfilled

[in] Same again, this time with Nc1ncnc2c1C(c1ccc(Cl)cc1)c1ccc3cccnc3c1O2 (stereo unspecified)
[out] Not fulfilled

[in] Similarly, CN/C=N/C1=C(C#N)C(c2ccc(Cl)cc2)c2ccc3cccnc3c2O1 (stereo unspecified) ?
[out] Fulfilled

[in] Entry to check: Cc1ccc2ccc3c(c2n1)OC(N)=C(C#N)C3c1ccc(Cl)cc1 (stereo unspecified)
[out] Not fulfilled

----------
Task for the reader: assign each of the following compounds its reported viability at 6.25 µg/mL.
Test system: MCF7
EXPERIMENTAL DETAILS: Cytotoxicity against Homo sapiens (human) MCF7 cells assessed as cell viability at 6.25 ug/ml after 48 hr by MTT assay relative to control
Assay type: functional
CONDITION NOTES: MCF7, 48 h, read-out: Activity
Kindly answer with a numeric value in %, unit omitted.

[in] Consider the compound N#CC1=C(/N=C/c2ccccc2)Oc2c(ccc3cccnc23)C1c1ccc(Cl)cc1 (stereo not given) and give its measured viability at 6.25 µg/mL.
[out] 40.8

[in] Moving on to CC(=O)NC1=C(C#N)C(c2ccc(Br)cc2)c2ccc3ccc(C)nc3c2O1 (stereo not given)
[out] 65.8

[in] // query: Cc1ccc2ccc3c(c2n1)OC(/N=C/N)=C(C#N)C3c1ccc(Br)cc1 (stereo not given)
[out] 89.8

[in] Entry CCO/C=N/C1=C(C#N)C(c2ccc(Cl)cc2)c2ccc3ccc(C)nc3c2O1 (stereo not given) please
[out] 76.6

[in] Cool, now Cc1ccc2ccc3c(c2n1)OC(N)=C(C#N)C3c1ccc(Br)cc1 (stereo not given)
[out] 75.2

[in] # iterate: Cc1ccc2ccc3c(c2n1)Oc1ncnc(N)c1C3c1ccc(Cl)cc1 (stereo not given)
[out] 94.5

[in] And CCO/C=N/C1=C(C#N)C(c2ccc(Br)cc2)c2ccc3ccc(C)nc3c2O1 (stereo not given) ?
[out] 87.6

[in] Now give it for Cc1ccc2ccc3c(c2n1)OC(/N=C/N(C)C)=C(C#N)C3c1ccc(Cl)cc1 (stereo not given) too.
[out] 76.9

[in] What do we get for CC(=O)NC1=C(C#N)C(c2ccc(Cl)cc2)c2ccc3ccc(C)nc3c2O1 (stereo not given) ?
[out] 76.8

[in] What do we get for Cc1ccc2ccc3c(c2n1)OC(/N=C/N)=C(C#N)C3c1ccc(Cl)cc1 (stereo not given) ?
[out] 89.3

----------
EXPERIMENTAL DETAILS: Cytotoxicity against Homo sapiens (human) HCT cells assessed as cell viability at 3.125 ug/ml after 48 hr by MTT assay relative to control
Format: functional
CONDITION NOTES: read-out: Activity
Field: viability at 3.125 µg/mL. Provide a value for each of the compounds that follow.
Give a bare numeral; the unit % is implied.

[in] Item under review: N#CC1=C(N)Oc2c(ccc3cccnc23)C1c1ccc(Cl)cc1 (stereo not given) . Reported viability at 3.125 µg/mL?
[out] 92.6

[in] Another compound: CCO/C=N/C1=C(C#N)C(c2ccc(Cl)cc2)c2ccc3ccc(C)nc3c2O1 (stereo not given)
[out] 54.9

[in] Repeat with CCO/C=N/C1=C(C#N)C(c2ccc(Cl)cc2)c2ccc3cccnc3c2O1 (stereo not given)
[out] 81.7

[in] And N#CC1=C(N)Oc2c(ccc3cccnc23)C1c1ccc(Br)cc1 (stereo not given) ?
[out] 100

[in] Cool, now Cc1ccc2ccc3c(c2n1)OC(/N=C/N(C)C)=C(C#N)C3c1ccc(Cl)cc1 (stereo not given)
[out] 78.7

[in] Input CCO/C=N/C1=C(C#N)C(c2ccc(Br)cc2)c2ccc3ccc(C)nc3c2O1 (stereo not given)
[out] 62.9

[in] Next compound: Cc1ccc2ccc3c(c2n1)OC(N)=C(C#N)C3c1ccc(Br)cc1 (stereo not given)
[out] 88

[in] Try the compound CN/C=N/C1=C(C#N)C(c2ccc(Cl)cc2)c2ccc3cccnc3c2O1 (stereo not given)
[out] 41.4

[in] Also, N#CC1=C(/N=C/N)Oc2c(ccc3cccnc23)C1c1ccc(Cl)cc1 (stereo not given) please.
[out] 80.2

[in] Now the compound CC(=O)NC1=C(C#N)C(c2ccc(Cl)cc2)c2ccc3ccc(C)nc3c2O1 (stereo not given)
[out] 85.2

----------
EXPERIMENTAL DETAILS: Cytotoxicity against Homo sapiens (human) HCT cells assessed as cell viability at 50 ug/ml after 48 hr by MTT assay relative to control
Type: functional
CONDITION NOTES: read-out: Activity
MEASUREMENT KIND: viability at 50 µg/mL (%)
The reply should contain only the number, in %.

[in] Please report the recorded viability at 50 µg/mL for CN(C)/C=N/C1=C(C#N)C(c2ccc(Cl)cc2)c2ccc3cccnc3c2O1 (stereo not given) .
[out] 49.5

[in] Follow-up item: CC[C@]1(O)C[C@@H]2CN(CCc3c([nH]c4ccccc34)[C@@](C(=O)OC)(c3cc4c(cc3OC)N(C)[C@H]3[C@@](O)(C(=O)OC)[C@H](OC(C)=O)[C@]5(CC)C=CCN6CC[C@]43[C@@H]65)C2)C1
[out] 16.3

[in] And for N#CC1=C(/N=C/N)Oc2c(ccc3cccnc23)C1c1ccc(Cl)cc1 (stereo not given) ?
[out] 18.7

[in] // same read-out, input: CCO/C=N/C1=C(C#N)C(c2ccc(Cl)cc2)c2ccc3cccnc3c2O1 (stereo not given)
[out] 23.9

[in] Consider next the molecule CC(=O)NC1=C(C#N)C(c2ccc(Br)cc2)c2ccc3ccc(C)nc3c2O1 (stereo not given) in the same way.
[out] 22.5

[in] Do the same for N#CC1=C(N)Oc2c(ccc3cccnc23)C1c1ccc(Cl)cc1 (stereo not given) please
[out] 27.4

[in] Subsequent entry: N#CC1=C(/N=C/NN)Oc2c(ccc3cccnc23)C1c1ccc(Cl)cc1 (stereo not given)
[out] 24.8

[in] Same read-out for N#CC1=C(/N=C/c2ccccc2)Oc2c(ccc3cccnc23)C1c1ccc(Cl)cc1 (stereo not given) ?
[out] 9.13

[in] Okay, and CCO/C=N/C1=C(C#N)C(c2ccc(Cl)cc2)c2ccc3ccc(C)nc3c2O1 (stereo not given) ?
[out] 15.2

[in] Same read-out for Cc1ccc2ccc3c(c2n1)OC(N)=C(C#N)C3c1ccc(Br)cc1 (stereo not given) ?
[out] 36.6

[in] Lookup N#CC1=C(N)Oc2c(ccc3cccnc23)C1c1ccc(Br)cc1 (stereo not given)
[out] 42.4

[in] Now try CCO/C=N/C1=C(C#N)C(c2ccc(Br)cc2)c2ccc3ccc(C)nc3c2O1 (stereo not given) .
[out] 19.8

[in] Can you handle CC(=O)NC1=C(C#N)C(c2ccc(Cl)cc2)c2ccc3ccc(C)nc3c2O1 (stereo not given) next?
[out] 22

[in] Again, but for Cc1ccc2ccc3c(c2n1)OC(/N=C/N)=C(C#N)C3c1ccc(Cl)cc1 (stereo not given)
[out] 35.9

[in] Next: Cc1ccc2ccc3c(c2n1)Oc1ncnc(N)c1C3c1ccc(Cl)cc1 (stereo not given)
[out] 41.6

[in] What about Cc1ccc2ccc3c(c2n1)OC(/N=C/N)=C(C#N)C3c1ccc(Br)cc1 (stereo not given) ?
[out] 24.8

[in] Note, next up: Cc1ccc2ccc3c(c2n1)OC(N)=C(C#N)C3c1ccc(Cl)cc1 (stereo not given)
[out] 27.6

[in] Check Nc1ncnc2c1C(c1ccc(Cl)cc1)c1ccc3cccnc3c1O2 (stereo not given) too.
[out] 26.4

[in] Again, but for Cc1ccc2ccc3c(c2n1)OC(/N=C/N(C)C)=C(C#N)C3c1ccc(Cl)cc1 (stereo not given)
[out] 30.5

[in] Next up: CN/C=N/C1=C(C#N)C(c2ccc(Cl)cc2)c2ccc3cccnc3c2O1 (stereo not given)
[out] 11.1
